Target: Apoptotic protease-activating factor 1 (Homo sapiens)
Sequence (O14727 whole entry): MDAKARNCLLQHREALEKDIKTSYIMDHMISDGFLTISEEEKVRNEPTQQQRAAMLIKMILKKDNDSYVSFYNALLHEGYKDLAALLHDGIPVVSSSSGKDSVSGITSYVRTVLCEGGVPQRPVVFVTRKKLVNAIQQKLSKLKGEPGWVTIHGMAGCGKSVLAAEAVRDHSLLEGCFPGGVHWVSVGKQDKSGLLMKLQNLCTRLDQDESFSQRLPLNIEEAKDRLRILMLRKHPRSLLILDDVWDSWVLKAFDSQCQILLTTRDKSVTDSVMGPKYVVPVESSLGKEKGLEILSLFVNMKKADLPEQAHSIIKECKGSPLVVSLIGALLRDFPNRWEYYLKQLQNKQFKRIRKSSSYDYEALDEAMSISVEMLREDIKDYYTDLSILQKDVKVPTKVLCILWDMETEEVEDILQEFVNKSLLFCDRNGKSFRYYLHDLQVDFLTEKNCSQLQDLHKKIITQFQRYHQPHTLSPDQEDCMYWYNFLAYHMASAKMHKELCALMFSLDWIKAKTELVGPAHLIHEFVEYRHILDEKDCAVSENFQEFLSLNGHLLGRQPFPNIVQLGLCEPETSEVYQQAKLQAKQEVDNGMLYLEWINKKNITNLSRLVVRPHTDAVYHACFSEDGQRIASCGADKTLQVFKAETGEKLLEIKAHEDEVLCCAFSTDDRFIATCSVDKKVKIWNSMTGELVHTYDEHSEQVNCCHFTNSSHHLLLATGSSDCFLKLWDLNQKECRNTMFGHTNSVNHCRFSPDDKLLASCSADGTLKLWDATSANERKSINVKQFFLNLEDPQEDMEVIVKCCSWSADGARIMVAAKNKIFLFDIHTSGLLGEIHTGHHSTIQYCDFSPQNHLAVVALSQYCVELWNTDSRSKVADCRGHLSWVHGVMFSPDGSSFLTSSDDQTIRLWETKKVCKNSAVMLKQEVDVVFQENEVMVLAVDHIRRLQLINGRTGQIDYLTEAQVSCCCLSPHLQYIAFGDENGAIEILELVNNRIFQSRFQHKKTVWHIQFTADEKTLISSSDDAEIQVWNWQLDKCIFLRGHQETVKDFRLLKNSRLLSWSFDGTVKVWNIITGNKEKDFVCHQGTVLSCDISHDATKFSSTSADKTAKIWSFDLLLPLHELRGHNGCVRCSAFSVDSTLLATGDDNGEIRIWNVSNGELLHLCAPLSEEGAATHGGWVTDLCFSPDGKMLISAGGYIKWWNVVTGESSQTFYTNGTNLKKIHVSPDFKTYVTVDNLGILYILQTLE
Format: functional
Active and inactive are the calls of the source.
Each record here notes measured IC50.

# Molecule, Measurement Type, Reported Value
measured = [
    ("O=[N+]([O-])c1ccc(N/N=C/c2ccc(O)c(O)c2O)c(S(=O)(=O)N2CCOCC2)c1", "IC50", "21.4 µM (active)"),
    ("COc1ccc(NS(=O)(=O)c2ccc(C)c(NC(=O)CN3C(=O)NC4(CCCC4)C3=O)c2)cc1", "IC50", "23.2 µM (active)"),
    ("O=C1C(Cl)=C(NCc2cccnc2)C(=O)c2ccccc21", "IC50", "10.1 µM (active)"),
    ("CN(C)c1ncc(C2=C(Cl)C(=O)C(N3CCCC3)=C(Cl)C2=O)s1", "IC50", "25 µM (active)"),
    ("Cc1ccc(C(=O)c2c(C)oc3c2C(=O)C(=O)c2ccccc2-3)cc1", "IC50", "8.09 µM (active)"),
    ("O=C1C(O)=C/C(=N\\c2ccccc2O)c2ccccc21", "IC50", "2.61 µM (active)"),
]

Problem: Name the recorded IC50 of the item `Nc1ccc(Br)c2cccnc12` in your answer.
Solution: 39.1 µM (active)

###

Biological target: cAMP-dependent protein kinase catalytic subunit alpha (Homo sapiens, UniProt P17612)
Assay type: functional
The source made the active and inactive calls.
Bench note: report the call from active, inactive

# Compound, Class Assignment
records = [
    ("c1ccc(C2CCc3[nH]ncc32)cc1 (centres undefined)", "active"),
    ("CN(C)c1ccc(-c2c(-c3ccc4[nH]nc(N)c4c3)nnn2Cc2ccccc2)cc1", "active"),
    ("O=C1NC(=S)SC1=C1C(=O)Nc2ccc(Br)cc21", "inactive"),
]

Turning now to a further compound:
Problem: What is the recorded call for this compound in the test? `CC(C)c1cc(=O)[nH]c2[nH][nH]c(=O)c12`
Solution: inactive

###

Each record here notes measured EC50.
Assay: cytotoxicity toward NIH3T3 fibroblasts, dose response, counter-screen, cell-based, ATP luminescence, mouse fibroblasts (AID 2010);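 further: cells exposed to compound for about 90 hours before reading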
Type: functional
Active and inactive are the calls of the source.

# Compound, Reported Value
measured = [
    ("c1ccc2c(NC3C4CC5CC(C4)CC3C5)nc(N3CCOCC3)nc2c1 (stereo unspecified)", "> 30 µM (not active)"),
    ("O=[N+]([O-])c1ccc(S(=O)(=O)Nc2ccc(-c3ccc(N4CCCC4)nn3)cc2)cc1", "> 60 µM (not active)"),
    ("COc1ccc(CC(=O)Nc2nc(-c3ccncc3)cs2)cc1", "> 60 µM (not active)"),
    ("N=c1c(S(=O)(=O)c2ccc(Cl)cc2)cc2c(=O)n3ccccc3nc2n1CCc1ccccc1", "> 60 µM (not active)"),
]

Problem: Name the recorded EC50 of the item `Oc1c(CN2CCOCC2)cc(COCc2ccccc2)c2cccnc12` in your answer.
Solution: 28 µM (active)

Problem: Name the recorded EC50 of the item `COCCCNCCCOc1ccc(C(C)(C)c2ccccc2)cc1` in your answer.
Solution: > 60 µM (inconclusive)

###

Each record here notes measured EC50.
Assay: cytotoxicity toward NIH3T3 fibroblasts, dose response, counter-screen, cell-based, ATP luminescence, mouse fibroblasts (AID 2010);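 further: cells exposed to compound for about 90 hours before reading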
Type: functional
Activity calls are given as the source filed them.

Recorded results for 2 molecules are shown here.
# Molecule, EC50
records = [
    ("O=C(CCC1CCCN(Cc2ccc3c(c2)CCO3)C1)NCc1ccc(F)c(F)c1 (stereo not given)", "> 60 µM (not active)"),
    ("Cc1nn(Cc2cccc(Oc3ccccc3)c2)c(C)c1NC(=O)NC12CC3CC(CC(C3)C1)C2", "> 60 µM (not active)"),
]

Problem: Name the recorded EC50 of the item `COC(=O)C1=CN(C2CCCCC2)C=C(C(=O)OC)C1c1ccc2c(c1)OCO2` in your answer.
Solution: > 60 µM (inconclusive)

Problem: Name the recorded EC50 of the item `Cc1cc(C)n2nc(-c3ccsc3-n3c(C)ccc3C)cc2n1` in your answer.
Solution: > 60 µM (not active)

Problem: Name the recorded EC50 of the item `Cc1ccc(OCCN2CCN(c3nc(NCc4ccco4)c4ccccc4n3)CC2)cc1` in your answer.
Solution: 6.18 µM (active)

###

Test: CRF-BP/CRF-R2 complex antagonists, dose response, cell-based, uHTS hits, 384-well (AID 651639)
Format: functional, Homo sapiens
Conditions: read-out: IC50_Mean
Activity calls are given as the source filed them.
Bench note: report the call from active, inactive

Worked examples, 2 compounds total:
# Compound, Class Assignment
measured = [
    ("O=C(Nc1ccc(O)cc1)c1cccc(Oc2ccc([N+](=O)[O-])cc2)c1", "inactive"),
    ("COc1ccc(C(=O)NC(Oc2ccccc2)C(Cl)(Cl)Cl)cc1 (stereo not drawn)", "active"),
]

Problem: What is the recorded call for this compound in the test? `O=C(Nc1nc2c(F)cc(F)cc2s1)c1ccc([N+](=O)[O-])o1`
Solution: inactive

###

Each record here notes measured EC50.
Molecular target: UniProt P08659
Sequence (P08659 whole entry): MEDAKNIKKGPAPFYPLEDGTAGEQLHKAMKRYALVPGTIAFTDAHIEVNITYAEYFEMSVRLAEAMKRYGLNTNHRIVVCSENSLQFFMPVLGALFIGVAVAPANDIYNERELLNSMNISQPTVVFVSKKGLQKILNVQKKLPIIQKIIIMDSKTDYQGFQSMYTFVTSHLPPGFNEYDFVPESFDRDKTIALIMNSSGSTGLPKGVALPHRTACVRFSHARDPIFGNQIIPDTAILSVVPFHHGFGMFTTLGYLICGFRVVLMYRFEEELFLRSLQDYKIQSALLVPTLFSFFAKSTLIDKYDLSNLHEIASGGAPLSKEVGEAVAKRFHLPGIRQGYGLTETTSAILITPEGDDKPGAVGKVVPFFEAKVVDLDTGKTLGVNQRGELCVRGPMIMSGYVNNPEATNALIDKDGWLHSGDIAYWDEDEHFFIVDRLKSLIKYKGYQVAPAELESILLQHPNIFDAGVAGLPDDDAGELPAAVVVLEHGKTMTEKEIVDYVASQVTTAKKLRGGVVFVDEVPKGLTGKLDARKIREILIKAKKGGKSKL
Test: firefly luciferase enzyme inhibitors, dose response, biochemical, luminescence (AID 1891)
The source made the active and inactive calls.

# Molecule, System Name, EC50
measured = [
    ("CC(Oc1ccccc1Cl)C(=O)Nc1ccc(S(=O)(=O)N2CCCC2)cc1 (stereo unspecified)", "UniProt P08659", "32 µM (active)"),
]

Problem: Name the recorded EC50 of the item `CCOC(=S)SCC(=O)Nc1nccs1` in your answer.
Solution: > 112 µM (not active)

Problem: Name the recorded EC50 of the item CCOC(=O)c1c(C)[nH]c(C(=O)C(C)OC(=O)c2oc3ccccc3c2COC)c1C (stereo unspecified) in your answer.
Solution: > 112 µM (not active)

Problem: Name the recorded EC50 of the item O=C(O)C1C2C=CC(C2)C1C(=O)NCc1cccs1 (stereo unspecified) in your answer.
Solution: > 112 µM (not active)

Problem: Name the recorded EC50 of the item `Cc1ccc(NS(=O)(=O)c2ccc(Cl)c(C(=O)Nc3ccccc3-c3nc4ccccc4[nH]3)c2)cc1C` in your answer.
Solution: > 112 µM (not active)

Problem: Name the recorded EC50 of the item `COc1ccc(CN=C(S)NNC(=O)c2cc3ccccc3o2)cc1` in your answer.
Solution: > 112 µM (not active)
